Value source: ChEMBL document CHEMBL2057108

For each entry below, report its Ratio Ki value.
species: Homo sapiens; assay: Selectivity ratio of Ki for human 5HT3A receptor to Ki for human 5HT4C receptor

QUERY: Recorded Ratio Ki for "CC(=O)N1CCN(CCN2[C@@H]3CC[C@H]2C[C@@H](NC(=O)c2nn(C(C)C)c4ccccc24)C3)CC1" , please?
RESULT: 980

QUERY: Recorded Ratio Ki for "CC(C)N(C)CCCCCCN1[C@@H]2CC[C@H]1C[C@@H](NC(=O)c1nn(C(C)C)c3ccccc13)C2" , please?
RESULT: 23

QUERY: Recorded Ratio Ki for "CC(C)n1c(=O)c(C(=O)N[C@H]2C[C@H]3CC[C@@H](C2)N3C[C@@H](O)CN2CCN(S(C)(=O)=O)CC2)cc2ccccc21" , please?
RESULT: 7400

QUERY: Recorded Ratio Ki for COC[C@@H]1CCCN1CC(O)CN1[C@@H]2CC[C@H]1C[C@@H](NC(=O)c1nn(C(C)C)c3ccccc13)C2 (some centres not stated) , please?
RESULT: 3000

QUERY: Recorded Ratio Ki for "CCCCCNC(=N)N/N=C/c1c[nH]c2ccc(OC)cc12" , please?
RESULT: 580

QUERY: Recorded Ratio Ki for "CC(C)n1nc(C(=O)N[C@H]2C[C@H]3CC[C@@H](C2)N3C[C@H](O)CN2CCN(S(C)(=O)=O)CC2)c2ccccc21" , please?
RESULT: 240

QUERY: Recorded Ratio Ki for "COC[C@@H]1CCCN1CCCCCCN1[C@@H]2CC[C@H]1C[C@@H](NC(=O)c1nn(C(C)C)c3ccccc13)C2" , please?
RESULT: 14
